# TARGET OR TEST SYSTEM: human GHS-R 1a (Homo sapiens, UniProt Q92847)
# Sequence (Q92847 whole entry): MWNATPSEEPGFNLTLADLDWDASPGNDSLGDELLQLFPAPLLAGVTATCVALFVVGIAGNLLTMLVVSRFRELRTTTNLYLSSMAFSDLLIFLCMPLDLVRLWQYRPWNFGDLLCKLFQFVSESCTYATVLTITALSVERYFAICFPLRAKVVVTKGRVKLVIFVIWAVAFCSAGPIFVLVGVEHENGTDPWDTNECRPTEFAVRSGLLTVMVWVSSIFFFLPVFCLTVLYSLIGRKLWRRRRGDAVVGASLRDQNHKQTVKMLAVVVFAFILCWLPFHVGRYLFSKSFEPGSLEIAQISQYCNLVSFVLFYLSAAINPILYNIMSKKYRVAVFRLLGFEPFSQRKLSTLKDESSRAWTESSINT
# MEASUREMENT PROTOCOL: GHS-R 1a receptor-ligand binding assay (membrane preparations from transfected LLC PK-1 cells)
# EXPERIMENTAL SETUP: displacement of 125I-His9-ghrelin (60 pM); membranes of LLC PK-1 cells transfected with human GHS-R 1a; mean of at least two independent experiments in triplicates
Measured IC50 accompanies every entry in the list below.

SMILES TEXT	TARGET OR TEST SYSTEM	UNIT TEXT	IC50
COc1ccc(Cn2c(CCc3c[nH]c4ccccc34)nnc2[C@@H](Cc2c[nH]c3ccccc23)NC(=O)Cc2ccncc2)cc1	human GHS-R 1a (Homo sapiens, UniProt Q92847)	nM	106
CCc1ccc(Cn2c(CCc3ccccc3)nnc2[C@@H](Cc2c[nH]c3ccccc23)NC(=O)C2CCNCC2)cc1	human GHS-R 1a (Homo sapiens, UniProt Q92847)	nM	19
COc1cc(Cn2c(Cc3ccccc3)nnc2[C@@H](Cc2c[nH]c3ccccc23)NC(=O)C(C)(C)N)cc(OC)c1	human GHS-R 1a (Homo sapiens, UniProt Q92847)	nM	250
COc1ccc(Cn2c(CCc3ccccc3)nnc2[C@@H](Cc2c[nH]c3ccccc23)NC(=O)Cc2cccnc2)cc1	human GHS-R 1a (Homo sapiens, UniProt Q92847)	nM	29

----------
Measured IC50 accompanies every entry in the list below.
# TARGET OR TEST SYSTEM: UniProt:Q92847
# MEASUREMENT PROTOCOL: GHS-R 1a receptor-ligand binding assay (membrane preparations from transfected LLC PK-1 cells)
# EXPERIMENTAL SETUP: displacement of 125I-His9-ghrelin (60 pM); membranes of LLC PK-1 cells transfected with human GHS-R 1a; mean of at least two independent experiments in triplicates
OBSERVATION TYPE: IC50 (nM)

SMILES TEXT	UNIT TEXT	NUMERIC RESULT
CCc1ccc(Cn2c(CCc3ccccc3)nnc2[C@@H](Cc2c[nH]c3ccccc23)NC(=O)c2ccccn2)cc1	nM	44
COc1ccc(Cn2c(CCc3c[nH]c4ccccc34)nnc2[C@@H](Cc2c[nH]c3ccccc23)NC(=O)CN)c(OC)c1	nM	38
